Listed below: ε values for each entry.
METHOD_NOTES: UV absorption spectra measured in solution
Type: physicochemical
CONDITION_DETAILS: Table 2
READOUT: ε (L/mol/cm)

| COMPOUND | RESULT_NUMBER |
| --- | --- |
| CCN1C(=O)C(=CC=C2N(C)c3ccccc3C2(C)C)SC1=S | 36610 |
| COC(=O)c1ccc2c(c1)C(C)(C)C(=CC=c1c(C)c(C#N)c(=C(C#N)C#N)[nH]c1=O)N2C | 50900 |
| CCCCN1C(=O)C(=CC=C2N(C)c3ccccc3C2(C)C)C(C)=C(C#N)C1=O | 113100 |
| COc1ccc2c(c1)C(C)(C)C(=CC=C1C(=O)N(c3ccc(C4CCS(=O)(=O)C4)cc3)N=C1C)N2C (stereo not drawn) | 47640 |
| CCN1CCCC1=CC=C(C#N)[n+]1ccccc1.[O-][Cl+3]([O-])([O-])[O-] | 24400 |
| COc1ccc2c(c1)C(C)(C)C(=CC(C#N)=C(C#N)C#N)N2C | 31345 |

====

METHOD_NOTES: UV absorption spectra measured in solution
Assay type: physicochemical
CONDITION_DETAILS: Table 1, on the short wavelength flank
Marks after values point to notes of the source that are not given here.
Listed below: λ1/2-λ1/10 values for each entry.
READOUT: λ1/2-λ1/10

| SMILES | RESULT |
| --- | --- |
| CCCN1C(=O)C(=Cc2cnc(N(C)C)s2)C(C)=C(C#N)C1=O | 33^3) nm |
| CCN(CC)c1ncc(C=C2C(=O)c3ccccc3C2=O)s1 | 42^3) nm |
| CN(C)c1ncc(C(C#N)=C(C#N)C#N)s1 | 32^3) nm |
| CCCCN(CCCC)c1ccc(C=C2C(=O)OC(C)(C)OC2=O)o1 | 32^3) nm |

====

METHOD_NOTES: UV absorption spectra measured in solution
Format: physicochemical
CONDITION_DETAILS: Table 1, in dioxane
Protocol: In the case of a write-once optical data carrier according to the invention which is written on and read by means of the light of a blue laser, preference is given to merocyanine dyes whose absorption maximum λmax1 is in the range from 340 to 410 nm, […] half of the […] one tenth of the absorbance value at λmax1 are preferably not more than 50 nm apart. […] The absorption spectra are measured, for example, in solution. […]
Listed below: λmax values for each entry.

| MOLECULE | λmax / nm |
| --- | --- |
| CCCCN(CCCC)c1ccc(C=C2C(=O)N(C)C(=S)N(C)C2=O)o1 [Example 29] | 508 |
| CCCN1C(=O)C(=Cc2cnc(N(C)C)s2)C(C)=C(C#N)C1=O [Example 6] | 502 |
| CCCCN(CCCC)c1ccc(C=C2C(=O)N(C)C(=O)C(C#N)=C2C)o1 [Example 10] | 539 |
| CCCCN(CCCC)c1ccc(C=C2C(=O)N(CCC)C(=O)C(C#N)=C2C)s1 [Example 18] | 535 |
| CCCCN(CCCC)c1ncc(C=C2C(=O)N(CC)C(=O)C(C#N)=C2C)s1 [Example 13] | 508 |
| CCCCN(CCCC)c1ccc(C=C2C(=O)N(CCOC)C(=O)C(C#N)=C2C)s1 [Example 14] | 535 |

====

METHOD_NOTES: UV absorption spectra measured in solution
Assay type: physicochemical
CONDITION_DETAILS: Table 3, in dioxane
Method: In the case of a write-once optical data carrier according to the invention which is written on and read by means of the light of a blue laser, preference is given to merocyanine dyes whose absorption maximum λmax1 is in the range from 340 to 410 nm, […] half of the […] one tenth of the absorbance value at λmax1 are preferably not more than 50 nm apart. […] The absorption spectra are measured, for example, in solution. […]

| SMILES | λmax / nm |
| --- | --- |
| C=C(C)C(=O)OCCN1C(=O)C(=CC=CN2CCOCC2)C(C)=C(C#N)C1=O | 458 |
| CCCN1C(=O)C(=CC=CN(C)c2ccc(OC)cc2)C(C)=C(C#N)C1=O | 482 |
| CCN1C(=O)C(=CC=CC=CN(C)c2ccccc2)C(C)=C(C#N)C1=O | 585 |
| CN(C=CC=C1C(=O)c2ccccc2C1=O)c1ccccc1 | 447 |
| COC(=O)C(=CC=CN1CCOCC1)C(=O)OC | 366 |

====

METHOD_NOTES: UV absorption spectra measured in solution
Assay type: physicochemical
CONDITION_DETAILS: Table 1
Label label 1 when ε < 60000 L/mol/cm; otherwise label 0.

| SMILES | ASSIGNED_CLASS |
| --- | --- |
| CCCCN(CCCC)c1ccc(C=C2C(=O)N(C)C(=S)N(C)C2=O)o1 | label 0 |
| CCN(CC)c1ncc(C=C(C#N)[n+]2ccccc2)s1.[O-][Cl+3]([O-])([O-])[O-] | label 1 |
| CCCCN(CCCC)c1ccc(C=C2C(=O)N(CCOC)C(=O)C(C#N)=C2C)s1 | label 0 |
| CCN(CC)c1ncc(C=C2C(=O)c3ccccc3C2=O)s1 | label 0 |
| CCCCCCCCCCCCN1C(=O)C(=Cc2ccc(N(C)C)o2)C(=O)N(C)C1=O | label 1 |

====

METHOD_NOTES: UV absorption spectra measured in solution
Format: physicochemical
CONDITION_DETAILS: Table 2, in methanol
Protocol: In the case of a write-once optical data carrier according to the invention which is written on and read by means of the light of a blue laser, preference is given to merocyanine dyes whose absorption maximum λmax1 is in the range from 340 to 410 nm, […] half of the […] one tenth of the absorbance value at λmax1 are preferably not more than 50 nm apart. […] The absorption spectra are measured, for example, in solution. […]
Marks after values point to notes of the source that are not given here.
Listed below: λmax values for each entry.

| SMILES | λmax |
| --- | --- |
| COC(=O)c1ccc2c(c1)C(C)(C)C(=CC=c1c(C)c(C#N)c(=C(C#N)C#N)[nH]c1=O)N2C | 554^5) nm |
| CCOC(=O)C(C#N)=c1[nH]c(=O)c(=CC=C2N(C)c3ccc(C(=O)OC)cc3C2(C)C)c(C)c1C(=O)OCC | 587^5) nm |
| CCOC(=O)C(C#N)=c1[nH]c(=O)c(=CC=C2N(C)c3ccccc3C2(C)C)c(C)c1C(=O)OCC | 577^5) nm |
| COC(=O)c1ccc2c(c1)C(C)(C)C(=CC=C(C#N)[n+]1ccccc1)N2C.[O-][Cl+3]([O-])([O-])[O-] | 459^5) nm |
| Cc1c(C#N)c(=C(C#N)C#N)[nH]c(=O)c1=CC=C1N(C)c2ccccc2C1(C)C | 546^5) nm |
| CCN1CCCC1=CC=C(C#N)[n+]1ccccc1.[O-][Cl+3]([O-])([O-])[O-] | 462^5) nm |

====

METHOD_NOTES: UV absorption spectra measured in solution
Assay type: physicochemical
CONDITION_DETAILS: Table 1, |λDMF-λdioxane|
Listed below: Δλ values for each entry.
READOUT: Δλ

| SMILES | READOUT | RESULT |
| --- | --- | --- |
| CCCCCCN1C(=O)C(=Cc2ccc(N(C)C)o2)C(C)=C(C#N)C1=O | Δλ | 1.3 nm |
| CCN1C(=O)C(=Cc2ccc(N3CCCC3)o2)C(C)=C(C#N)C1=O | Δλ | 2 nm |
| CN(C)c1ncc(C(C#N)=C(C#N)C#N)s1 | Δλ | 16 nm |
| CCCCN(CCCC)c1ccc(C=C2C(=O)OC(C)(C)OC2=O)o1 | Δλ | 5 nm |

====

METHOD_NOTES: UV absorption spectra measured in solution
Type: physicochemical
CONDITION_DETAILS: Table 2, on the short wavelength flank
Marks after values point to notes of the source that are not given here.

| COMPOUND | λ1/2-λ1/10 |
| --- | --- |
| CN1C(=CC=C2C(=O)OC(C)(C)OC2=O)C(C)(C)c2ccccc21 [Example 40] | 27^3) nm |
| CN1C(=CC=C(C#N)c2nc3ccccc3s2)C(C)(C)c2ccccc21 [Example 57] | 34^3) nm |
| COc1ccc2c(c1)C(C)(C)C(=CC(C#N)=C(C#N)C#N)N2C [Example 43] | 36^3) nm |
| CCCOC(=O)C(C#N)=CC=C1N(C)c2ccccc2C1(C)C [Example 38] | 30^3) nm |
| CN1C(=CC=C2C(=O)CC(C)(C)CC2=O)C(C)(C)c2ccccc21 [Example 41] | 28^3) nm |
| CN1C(=CC=C2C(=O)c3ccccc3C2=O)C(C)(C)c2ccccc21 [Example 39] | 35^3) nm |

====

METHOD_NOTES: UV absorption spectra measured in solution
Format: physicochemical
CONDITION_DETAILS: Table 2, in dioxane
READOUT: λmax (nm)

| MOLECULE | READOUT | RESULT_NUMBER |
| --- | --- | --- |
| CC1=C(C#N)C(=O)N(C2CCCCC2)C(=O)C1=CC=C1N(C)c2ccccc2C1(C)C | λmax | 519 |
| CN1C(=CC=C(C#N)c2nc3ccccc3s2)C(C)(C)c2ccccc21 | λmax | 462 |
| CCCCN1C(=O)C(=CC=C2N(C)c3ccc(C(=O)OC)cc3C2(C)C)C(=O)c2ccccc21 | λmax | 500 |
| CN1C(=CC=C2C(=O)OC(C)(C)OC2=O)C(C)(C)c2ccccc21 | λmax | 448 |
| COc1ccc2c(c1)C(C)(C)C(=CC(C#N)=C(C#N)C#N)N2C | λmax | 511 |
| CCN1CCCC1=CC=C1SC(=S)N(CC)C1=O | λmax | 466 |
| CN1C(=CC=C2C(=O)CC(C)(C)CC2=O)C(C)(C)c2ccccc21 | λmax | 469 |
| COc1ccc2c(c1)C(C)(C)C(=CC=C1C(=O)N(c3ccc(C4CCS(=O)(=O)C4)cc3)N=C1C)N2C (stereo not drawn) | λmax | 473 |
| CCCCN1C(=O)C(=CC=C2N(C)c3ccccc3C2(C)C)C(C)=C(C#N)C1=O | λmax | 520 |
| CCOC(=O)C1=NN(c2ccccc2)C(=O)C1=CC=C1N(C)c2ccc(C(=O)OC)cc2C1(C)C | λmax | 496 |
| CN1C(=CC=C2C(=O)c3ccccc3C2=O)C(C)(C)c2ccccc21 | λmax | 487 |
| CCCOC(=O)C(C#N)=CC=C1N(C)c2ccccc2C1(C)C | λmax | 429 |
